Data origin: patent US20260242478A1

For each record, write down the corresponding phage binding ELISA signal, Anti-PSMA Fab in the presence of PSMA.
target_under_test: T1, PSMA Fab (006 PSMA Fab)
T1 construct: also called Anti-PSMA Fab
experimental_details: phage ELISA on captured PSMA Fab pre-incubated with the competitor PSMA antigen, anti-M13-HRP detection
Answers are plain numbers.

Recorded phage binding ELISA signal, Anti-PSMA Fab in the presence of PSMA, per entry:
[
  {
    "binder": "AQVLCVPNWMCTGF [Phage-3920]",
    "test_value": 0.0618
  },
  {
    "binder": "GAYTCVPAWMCQGF [Phage-3922]",
    "test_value": 0.0665
  },
  {
    "binder": "ATVRCMPMWMCHGF [Phage-3912]",
    "test_value": 0.0901
  }
]

From here, focus on the item given below.
Prompt line: Query: phage binding ELISA signal, Anti-PSMA Fab in the presence of PSMA; subject: QNFHCVPQWMCDWL [Phage-3913]
Response line: 0.0986
